The values you see were collected from paper PMC10051454.

For each entry below, report its Selectivity Index (hCA I/hCA II) value.
Just the number, please.

For `COc1ccc(/C=N/Nc2ccccc2)cc1O` on hCA I (Homo sapiens, UniProt P00915), measured Selectivity Index (hCA I/hCA II) was 0.247

Bench note, hCA I (Homo sapiens, UniProt P00915): `COc1ccc(/C=N/c2ccc(Br)cc2)cc1O` , Selectivity Index (hCA I/hCA II) reads 0.483

Reading of Selectivity Index (hCA I/hCA II) for `COc1ccc(/C=N/Cc2ccccc2)cc1O` with hCA I (Homo sapiens, UniProt P00915): 0.521

Item `COc1ccc(/C=N/c2ccc(N)cc2)cc1O` ; assay system hCA I (Homo sapiens, UniProt P00915); Selectivity Index (hCA I/hCA II) reported as 0.306

hCA I (Homo sapiens, UniProt P00915) data for `COc1ccc(/C=N/c2ccccc2O)cc1O` ; its Selectivity Index (hCA I/hCA II): 0.730

Form: item `COc1ccc(/C=N/N=C(c2ccccc2)c2ccccc2)cc1O` ; test system hCA I (Homo sapiens, UniProt P00915); Selectivity Index (hCA I/hCA II): 0.326

# `COc1ccc(/C=N/c2ccc(F)cc2)cc1O` with hCA I (Homo sapiens, UniProt P00915): Selectivity Index (hCA I/hCA II) is 0.424

Reading of Selectivity Index (hCA I/hCA II) for `COc1ccc(/C=N/c2ccc(N(C)C)cc2)cc1O` with hCA I (Homo sapiens, UniProt P00915): 0.372

* * *

Target: hCA II (Homo sapiens, UniProt P00918)
Experiment: hCA II inhibition, esterase assay (Verpoorte)
Assay type: biochemical
measurement kind: pIC50
Formally, pIC50 is defined as -log10 of the concentration c, with c in mol/L.

Measured pIC50, COc1ccc(C=O)cc1O [Compound 1, Isovanillin] : 6.76

* * *

Field: IC50. Provide a value for each of the compounds that follow.
Molecular target: BChE (Homo sapiens)
Sequence (P06276 29-602): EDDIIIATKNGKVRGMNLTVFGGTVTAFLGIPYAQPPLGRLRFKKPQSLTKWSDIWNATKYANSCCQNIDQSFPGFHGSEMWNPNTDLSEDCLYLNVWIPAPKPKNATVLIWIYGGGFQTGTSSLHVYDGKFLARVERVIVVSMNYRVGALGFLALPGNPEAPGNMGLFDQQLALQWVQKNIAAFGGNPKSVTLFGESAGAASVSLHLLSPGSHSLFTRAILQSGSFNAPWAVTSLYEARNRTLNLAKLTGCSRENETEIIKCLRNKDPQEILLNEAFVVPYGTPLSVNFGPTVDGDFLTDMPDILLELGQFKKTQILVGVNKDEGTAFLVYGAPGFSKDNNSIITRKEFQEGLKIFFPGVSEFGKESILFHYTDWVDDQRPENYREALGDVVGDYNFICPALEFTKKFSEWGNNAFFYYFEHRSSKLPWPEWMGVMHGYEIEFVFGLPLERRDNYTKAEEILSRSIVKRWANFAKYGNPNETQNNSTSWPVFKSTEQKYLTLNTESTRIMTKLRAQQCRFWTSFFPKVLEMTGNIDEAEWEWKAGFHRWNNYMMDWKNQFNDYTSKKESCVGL
Assay: biochemical
Details: read-out: IC50 BChE
Please state the figure in nM; there is no need to write the unit.

Form field IC50, entry `COc1ccc(/C=N/c2ccc(F)cc2)cc1O` : 33

Reported IC50 ( `COc1ccc(/C=N/c2ccc(N)cc2)cc1O` ) = 38.5

Measured IC50, `COc1ccc(/C=N/c2ccc(N(C)C)cc2)cc1O` : 23.9

Lab note: `COc1ccc(/C=N/c2ccccc2O)cc1O` gave IC50 of 34.6

Kindly note the recorded IC50 for `COc1ccc(/C=N/Nc2ccccc2)cc1O` , which is 19.8

IC50 reading for `COc1ccc(/C=N/N=C(c2ccccc2)c2ccccc2)cc1O` : 25.7

Entry `COc1ccc(/C=N/Cc2ccccc2)cc1O` ; IC50 = 36.5

// IC50 lookup, compound = `COc1ccc(/C=N/c2ccc(Br)cc2)cc1O` , result: 28.9

* * *

Observed IC50 values for hCA I (Homo sapiens, UniProt P00915) are listed in what follows.
State just the number; it will be interpreted in nM.

So, COc1ccc(/C=N/c2ccccc2O)cc1O [Compound 11] ? Its IC50 was 86.6

The compound listed as COc1ccc(/C=N/c2ccc(Br)cc2)cc1O [Compound 13] shows IC50 equal to 63

Consider COc1ccc(/C=N/c2ccc(N)cc2)cc1O [Compound 14] . Its measured IC50 is 53.3

The compound COc1ccc(/C=N/c2ccc(N(C)C)cc2)cc1O [Compound 10] showed IC50 equal to 66

The reported IC50 of the compound COc1ccc(/C=N/N=C(c2ccccc2)c2ccccc2)cc1O [Compound 16] was 69.3

The value of IC50 measured for the compound COc1ccc(/C=N/Cc2ccccc2)cc1O [Compound 15] turned out to be 99

For this compound ( COc1ccc(/C=N/Nc2ccccc2)cc1O [Compound 17] ), measured IC50 is 96.2

What the record says about COc1ccc(C=O)cc1O [Compound 1, Isovanillin] : IC50 is 139

// IC50 value for COc1ccc(/C=N/c2ccc(F)cc2)cc1O [Compound 12] : 61.9
